Recorded residual activity, one value per entry.
Molecular target: Ribosomal protein S6 kinase alpha-6 (Homo sapiens) (UniProt Q9UK32)
Sequence (Q9UK32 whole entry): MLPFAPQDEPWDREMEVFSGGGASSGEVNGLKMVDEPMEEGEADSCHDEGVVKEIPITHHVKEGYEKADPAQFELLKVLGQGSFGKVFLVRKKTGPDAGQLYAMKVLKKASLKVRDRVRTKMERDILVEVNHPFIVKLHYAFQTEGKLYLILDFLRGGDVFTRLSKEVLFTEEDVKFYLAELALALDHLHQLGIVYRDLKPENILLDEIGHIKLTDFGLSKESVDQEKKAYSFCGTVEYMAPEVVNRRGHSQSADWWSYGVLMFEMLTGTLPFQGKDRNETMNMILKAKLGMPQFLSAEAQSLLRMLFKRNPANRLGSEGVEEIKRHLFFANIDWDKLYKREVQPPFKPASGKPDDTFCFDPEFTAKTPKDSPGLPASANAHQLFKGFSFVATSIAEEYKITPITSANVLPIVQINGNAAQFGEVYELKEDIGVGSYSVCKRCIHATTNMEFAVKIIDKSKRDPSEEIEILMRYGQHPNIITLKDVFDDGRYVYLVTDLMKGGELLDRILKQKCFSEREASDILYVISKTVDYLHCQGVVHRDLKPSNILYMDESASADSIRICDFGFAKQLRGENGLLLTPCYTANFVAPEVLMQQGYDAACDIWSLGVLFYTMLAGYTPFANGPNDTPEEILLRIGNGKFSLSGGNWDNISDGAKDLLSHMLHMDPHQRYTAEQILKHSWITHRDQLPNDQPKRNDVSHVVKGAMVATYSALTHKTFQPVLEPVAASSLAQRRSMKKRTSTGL
Settings: at 10 µM

Item Smiles	Measurement Target	residual activity
O=[N+]([O-])/C=C/c1ccc2c(c1)OCO2	Ribosomal protein S6 kinase alpha-6 (Homo sapiens) (UniProt Q9UK32)	94%
COC(=O)[C@@]1(O)C[C@H]2O[C@]1(C)n1c3ccccc3c3c4c(c5c6ccccc6n2c5c31)C(=O)NC4	Ribosomal protein S6 kinase alpha-6 (Homo sapiens) (UniProt Q9UK32)	3%
COc1cc2ncnc(Nc3ccc(OCc4ccccc4)cc3)c2cc1OC	Ribosomal protein S6 kinase alpha-6 (Homo sapiens) (UniProt Q9UK32)	133%
O=C1NC(=O)c2c1c1c3ccccc3n3c1c1c2c2ccccc2n1C1CCC3O1	Ribosomal protein S6 kinase alpha-6 (Homo sapiens) (UniProt Q9UK32)	17%
c1cc(-c2cnn3cc(-c4ccc(OCCN5CCCCC5)cc4)cnc23)ccn1	Ribosomal protein S6 kinase alpha-6 (Homo sapiens) (UniProt Q9UK32)	63%
CC(C)(C)c1cc(C=C(C#N)C#N)cc(Br)c1O	Ribosomal protein S6 kinase alpha-6 (Homo sapiens) (UniProt Q9UK32)	106%
CCn1cnc2c(Nc3cccc(Cl)c3)nc(N[C@@H]3CCCC[C@@H]3N)nc21	Ribosomal protein S6 kinase alpha-6 (Homo sapiens) (UniProt Q9UK32)	7%

----------
Molecular target: Dual specificity tyrosine-phosphorylation-regulated kinase 2 (Homo sapiens)
Conditions: at 10 µM
Please respond with yes when measured residual activity is strictly beneath 90%, and with no in all other cases.

Item Smiles	Measurement Target	Group Label
COc1ccc2c(c1)/C(=C/c1cnc[nH]1)C(=O)N2	Dual specificity tyrosine-phosphorylation-regulated kinase 2 (Homo sapiens)	yes
O=C1NC(=O)c2c1c1c3ccccc3n3c1c1c2c2ccccc2n1C1CCC3O1	Dual specificity tyrosine-phosphorylation-regulated kinase 2 (Homo sapiens)	yes
CC(C)[C@H](CO)Nc1nc(Nc2cccc(Cl)c2)c2ncn(C(C)C)c2n1	Dual specificity tyrosine-phosphorylation-regulated kinase 2 (Homo sapiens)	yes
COc1ccc2c(c[n+](C)c3c4cc5c(cc4ccc23)OCO5)c1OC	Dual specificity tyrosine-phosphorylation-regulated kinase 2 (Homo sapiens)	no
O=c1[nH]c2ccccc2n1C1CCN(Cc2ccc(-c3nc4cc5[nH]cnc5cc4nc3-c3ccccc3)cc2)CC1	Dual specificity tyrosine-phosphorylation-regulated kinase 2 (Homo sapiens)	no
COc1cc(OC)c(/C=C2\C(=O)Nc3ccccc32)c(OC)c1	Dual specificity tyrosine-phosphorylation-regulated kinase 2 (Homo sapiens)	no
O=C1c2ccccc2-c2nc3nnnn3nc21	Dual specificity tyrosine-phosphorylation-regulated kinase 2 (Homo sapiens)	no
CCc1nc(-c2ccc(OC)cc2)[nH]c1-c1ccncc1	Dual specificity tyrosine-phosphorylation-regulated kinase 2 (Homo sapiens)	yes
CC(C)(C)c1cc(C=C(C#N)C#N)cc(Br)c1O	Dual specificity tyrosine-phosphorylation-regulated kinase 2 (Homo sapiens)	no

----------
Biological target: Tyrosine-protein kinase Fer (Homo sapiens)
Details: at 10 µM

Item Smiles	Unit Text	residual activity
COc1ccc2c(c[n+](C)c3c4cc5c(cc4ccc23)OCO5)c1OC	%	80
COc1cc2ncnc(Nc3ccc(OCc4ccccc4)cc3)c2cc1OC	%	98
CC(C)[C@H](CO)Nc1nc(Nc2cccc(Cl)c2)c2ncn(C(C)C)c2n1	%	26
COc1cc(OC)c(/C=C2\C(=O)Nc3ccccc32)c(OC)c1	%	94
CCc1nc(-c2ccc(OC)cc2)[nH]c1-c1ccncc1	%	101
CC(C)(C)c1cc(C=C(C#N)C#N)cc(Br)c1O	%	107

----------
Target: Insulin-like growth factor 1 receptor (Homo sapiens) (UniProt P08069)
Sequence (P08069 31-736 limits assumed): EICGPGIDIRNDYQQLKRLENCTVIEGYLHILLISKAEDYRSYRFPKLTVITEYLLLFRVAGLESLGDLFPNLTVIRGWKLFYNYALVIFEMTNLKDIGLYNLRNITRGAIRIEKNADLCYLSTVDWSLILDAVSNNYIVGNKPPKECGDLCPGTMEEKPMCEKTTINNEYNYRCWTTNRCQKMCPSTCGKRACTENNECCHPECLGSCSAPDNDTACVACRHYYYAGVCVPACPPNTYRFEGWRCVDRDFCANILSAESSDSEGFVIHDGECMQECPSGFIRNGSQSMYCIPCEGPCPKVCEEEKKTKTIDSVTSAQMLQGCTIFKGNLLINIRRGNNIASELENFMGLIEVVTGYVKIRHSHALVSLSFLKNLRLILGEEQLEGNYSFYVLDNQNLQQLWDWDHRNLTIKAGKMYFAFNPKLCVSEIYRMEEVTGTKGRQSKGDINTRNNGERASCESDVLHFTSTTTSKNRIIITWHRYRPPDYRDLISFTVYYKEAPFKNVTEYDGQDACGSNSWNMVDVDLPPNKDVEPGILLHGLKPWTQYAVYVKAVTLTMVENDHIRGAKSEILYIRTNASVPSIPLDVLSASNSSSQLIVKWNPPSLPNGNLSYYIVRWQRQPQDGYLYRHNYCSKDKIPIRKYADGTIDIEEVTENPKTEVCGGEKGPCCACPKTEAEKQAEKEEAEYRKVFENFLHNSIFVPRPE
Sequence (P08069 741-1367 limits assumed): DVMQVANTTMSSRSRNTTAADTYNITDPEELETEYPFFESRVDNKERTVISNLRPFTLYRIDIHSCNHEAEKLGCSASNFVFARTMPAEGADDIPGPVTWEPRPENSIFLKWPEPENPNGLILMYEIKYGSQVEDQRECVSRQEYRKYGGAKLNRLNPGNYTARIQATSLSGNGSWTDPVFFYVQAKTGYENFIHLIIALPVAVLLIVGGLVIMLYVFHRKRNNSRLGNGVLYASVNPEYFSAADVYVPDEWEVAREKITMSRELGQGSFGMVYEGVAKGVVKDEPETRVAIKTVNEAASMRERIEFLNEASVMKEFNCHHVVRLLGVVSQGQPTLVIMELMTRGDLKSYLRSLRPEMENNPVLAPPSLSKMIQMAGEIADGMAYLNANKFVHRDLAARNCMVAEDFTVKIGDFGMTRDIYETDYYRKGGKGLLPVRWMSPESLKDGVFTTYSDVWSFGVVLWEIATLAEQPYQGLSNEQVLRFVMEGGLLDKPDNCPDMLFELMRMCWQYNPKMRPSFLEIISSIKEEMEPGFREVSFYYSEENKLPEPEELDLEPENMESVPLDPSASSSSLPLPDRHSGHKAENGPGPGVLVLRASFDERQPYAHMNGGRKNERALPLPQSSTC
Conditions: at 10 µM

Item Smiles	Measurement Target	Unit Text	residual activity
COc1cc(OC)c(/C=C2\C(=O)Nc3ccccc32)c(OC)c1	Insulin-like growth factor 1 receptor (Homo sapiens) (UniProt P08069)	%	98
CCn1cnc2c(Nc3cccc(Cl)c3)nc(N[C@@H]3CCCC[C@@H]3N)nc21	Insulin-like growth factor 1 receptor (Homo sapiens) (UniProt P08069)	%	44
O=c1[nH]c2ccccc2n1C1CCN(Cc2ccc(-c3nc4cc5[nH]cnc5cc4nc3-c3ccccc3)cc2)CC1	Insulin-like growth factor 1 receptor (Homo sapiens) (UniProt P08069)	%	80
CC(C)(C)c1cc(C=C(C#N)C#N)cc(Br)c1O	Insulin-like growth factor 1 receptor (Homo sapiens) (UniProt P08069)	%	104
O=C1Nc2ccc3ncsc3c2/C1=C/c1c[nH]cn1	Insulin-like growth factor 1 receptor (Homo sapiens) (UniProt P08069)	%	60
COC(=O)[C@@]1(O)C[C@H]2O[C@]1(C)n1c3ccccc3c3c4c(c5c6ccccc6n2c5c31)C(=O)NC4	Insulin-like growth factor 1 receptor (Homo sapiens) (UniProt P08069)	%	3
CCc1nc(-c2ccc(OC)cc2)[nH]c1-c1ccncc1	Insulin-like growth factor 1 receptor (Homo sapiens) (UniProt P08069)	%	107
COc1ccc2c(c[n+](C)c3c4cc5c(cc4ccc23)OCO5)c1OC	Insulin-like growth factor 1 receptor (Homo sapiens) (UniProt P08069)	%	82

----------
Recorded residual activity, one value per entry.
Target: Serine/threonine-protein kinase VRK2 (Homo sapiens) (UniProt Q86Y07);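 note: remaining VRK2 kinase activity expressed as percent of uninhibited control, measured in MOPS buffer at pH 7.0 containing EDTA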
Sequence (Q86Y07 whole entry): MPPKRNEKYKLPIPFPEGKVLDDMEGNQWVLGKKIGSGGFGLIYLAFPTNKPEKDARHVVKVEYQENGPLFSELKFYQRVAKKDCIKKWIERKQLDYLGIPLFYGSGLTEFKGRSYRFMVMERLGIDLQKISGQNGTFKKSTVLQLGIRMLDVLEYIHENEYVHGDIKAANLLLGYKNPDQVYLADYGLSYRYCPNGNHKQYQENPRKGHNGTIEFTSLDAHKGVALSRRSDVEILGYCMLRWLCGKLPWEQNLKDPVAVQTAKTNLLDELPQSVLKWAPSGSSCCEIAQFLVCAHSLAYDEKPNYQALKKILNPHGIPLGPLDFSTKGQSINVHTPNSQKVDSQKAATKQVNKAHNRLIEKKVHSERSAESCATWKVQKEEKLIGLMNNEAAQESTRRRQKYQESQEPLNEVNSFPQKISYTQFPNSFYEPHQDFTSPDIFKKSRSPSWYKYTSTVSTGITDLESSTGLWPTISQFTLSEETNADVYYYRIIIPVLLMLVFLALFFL
Conditions: at 1 µM
Description: Millipore: Percentage of residual kinase activity of VRK2 at 1uM relative to control. Control inhibitor: Phosphoric acid* at 0.3uM. Buffer: 8 mM MOPS pH 7.0, 0.2 mM EDTA

Compound	residual activity, %
COc1cc2ncnc(Nc3ccc(OCc4ccccc4)cc3)c2cc1OC	112
CC(C)(C)c1cc(C=C(C#N)C#N)cc(Br)c1O	101
c1cc(-c2cnn3cc(-c4ccc(OCCN5CCCCC5)cc4)cnc23)ccn1	119
CCn1cnc2c(Nc3cccc(Cl)c3)nc(N[C@@H]3CCCC[C@@H]3N)nc21	94
C[S+]([O-])c1ccc(-c2nc(-c3ccc(F)cc3)c(-c3ccncc3)[nH]2)cc1 (stereo unspecified)	114
CCc1nc(-c2ccc(OC)cc2)[nH]c1-c1ccncc1	113

----------
Molecular target: Protein kinase C theta type (Homo sapiens)
Conditions: at 1 µM
Recorded residual activity, one value per entry.

Compound	residual activity (%)
C[S+]([O-])c1ccc(-c2nc(-c3ccc(F)cc3)c(-c3ccncc3)[nH]2)cc1 (stereo unspecified)	105
O=C1Nc2ccc3ncsc3c2/C1=C/c1c[nH]cn1	49
O=C1NC(=O)c2c1c1c3ccccc3n3c1c1c2c2ccccc2n1C1CCC3O1	7
COc1cc2ncnc(Nc3ccc(OCc4ccccc4)cc3)c2cc1OC	124
CC(C)(C)c1cc(C=C(C#N)C#N)cc(Br)c1O	103
O=c1[nH]c2ccccc2n1C1CCN(Cc2ccc(-c3nc4cc5[nH]cnc5cc4nc3-c3ccccc3)cc2)CC1	104

----------
Biological target: Serine/threonine-protein kinase 17A (Homo sapiens) (UniProt Q9UEE5)
Sequence (whole entry): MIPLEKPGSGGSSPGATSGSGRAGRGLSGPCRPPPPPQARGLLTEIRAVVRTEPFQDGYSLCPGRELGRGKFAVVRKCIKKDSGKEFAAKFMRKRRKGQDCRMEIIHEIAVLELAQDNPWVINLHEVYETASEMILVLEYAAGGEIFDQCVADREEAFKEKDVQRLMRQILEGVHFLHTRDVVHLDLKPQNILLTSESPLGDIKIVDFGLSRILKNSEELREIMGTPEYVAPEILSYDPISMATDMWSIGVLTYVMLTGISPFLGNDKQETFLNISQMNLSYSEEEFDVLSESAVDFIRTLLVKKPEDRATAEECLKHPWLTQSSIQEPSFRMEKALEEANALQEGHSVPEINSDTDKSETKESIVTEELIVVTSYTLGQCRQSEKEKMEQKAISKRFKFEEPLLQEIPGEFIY
Settings: at 1 µM
Recorded residual activity, one value per entry.

Compound	residual activity (%)
c1cc(-c2cnn3cc(-c4ccc(OCCN5CCCCC5)cc4)cnc23)ccn1	19
C[S+]([O-])c1ccc(-c2nc(-c3ccc(F)cc3)c(-c3ccncc3)[nH]2)cc1 (configuration not stated)	123
COC(=O)[C@@]1(O)C[C@H]2O[C@]1(C)n1c3ccccc3c3c4c(c5c6ccccc6n2c5c31)C(=O)NC4	0
COc1cc2ncnc(Nc3ccc(OCc4ccccc4)cc3)c2cc1OC	116
CC(C)(C)c1cc(C=C(C#N)C#N)cc(Br)c1O	147
O=C1c2ccccc2-c2nc3nnnn3nc21	108
O=C1NC(=O)c2c1c1c3ccccc3n3c1c1c2c2ccccc2n1C1CCC3O1	16

----------
Molecular target: Vascular endothelial growth factor receptor 3 (Homo sapiens) (UniProt P35916)
Sequence (P35916 whole entry): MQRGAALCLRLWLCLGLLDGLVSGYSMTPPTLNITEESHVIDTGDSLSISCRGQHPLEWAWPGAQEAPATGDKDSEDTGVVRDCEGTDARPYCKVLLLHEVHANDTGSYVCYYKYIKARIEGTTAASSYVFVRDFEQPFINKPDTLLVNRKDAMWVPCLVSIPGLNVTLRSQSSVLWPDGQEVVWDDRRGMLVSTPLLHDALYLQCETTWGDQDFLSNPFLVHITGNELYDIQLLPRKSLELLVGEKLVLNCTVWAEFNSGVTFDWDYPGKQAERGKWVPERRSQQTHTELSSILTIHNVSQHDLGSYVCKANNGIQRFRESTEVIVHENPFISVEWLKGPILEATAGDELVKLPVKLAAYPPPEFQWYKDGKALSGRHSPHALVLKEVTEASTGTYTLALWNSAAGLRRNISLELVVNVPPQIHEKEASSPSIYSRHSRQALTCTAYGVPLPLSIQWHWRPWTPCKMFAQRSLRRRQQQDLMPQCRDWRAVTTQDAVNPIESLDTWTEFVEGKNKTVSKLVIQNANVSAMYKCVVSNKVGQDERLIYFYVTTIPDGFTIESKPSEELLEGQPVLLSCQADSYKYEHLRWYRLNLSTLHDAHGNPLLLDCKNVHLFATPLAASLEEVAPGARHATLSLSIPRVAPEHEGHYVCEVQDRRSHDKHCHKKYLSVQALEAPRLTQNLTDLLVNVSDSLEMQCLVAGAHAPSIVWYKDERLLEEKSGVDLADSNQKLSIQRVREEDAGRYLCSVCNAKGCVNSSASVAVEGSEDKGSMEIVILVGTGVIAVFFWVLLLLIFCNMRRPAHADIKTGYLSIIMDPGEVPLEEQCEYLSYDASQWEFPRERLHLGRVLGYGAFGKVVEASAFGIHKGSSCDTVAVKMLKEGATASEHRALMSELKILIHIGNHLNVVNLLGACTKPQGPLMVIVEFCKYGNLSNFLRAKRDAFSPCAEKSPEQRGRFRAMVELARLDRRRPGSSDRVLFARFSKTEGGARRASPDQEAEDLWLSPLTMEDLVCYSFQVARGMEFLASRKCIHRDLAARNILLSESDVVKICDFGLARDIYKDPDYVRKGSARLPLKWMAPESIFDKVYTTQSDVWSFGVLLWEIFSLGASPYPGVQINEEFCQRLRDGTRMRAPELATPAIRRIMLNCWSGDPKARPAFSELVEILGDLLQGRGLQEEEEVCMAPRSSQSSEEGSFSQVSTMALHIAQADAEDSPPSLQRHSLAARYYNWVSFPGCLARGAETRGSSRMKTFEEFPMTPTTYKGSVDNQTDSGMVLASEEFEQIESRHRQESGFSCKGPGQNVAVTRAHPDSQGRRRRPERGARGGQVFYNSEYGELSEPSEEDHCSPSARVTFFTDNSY
Settings: at 10 µM
Observable: residual activity (%)

Item Smiles	Measurement Target	Observable	Unit Text	Result Value
COc1cc2ncnc(Nc3ccc(OCc4ccccc4)cc3)c2cc1OC	Vascular endothelial growth factor receptor 3 (Homo sapiens) (UniProt P35916)	residual activity	%	2
O=[N+]([O-])/C=C/c1ccc2c(c1)OCO2	Vascular endothelial growth factor receptor 3 (Homo sapiens) (UniProt P35916)	residual activity	%	95
c1cc(-c2cnn3cc(-c4ccc(OCCN5CCCCC5)cc4)cnc23)ccn1	Vascular endothelial growth factor receptor 3 (Homo sapiens) (UniProt P35916)	residual activity	%	0
O=C1Nc2ccc3ncsc3c2/C1=C/c1c[nH]cn1	Vascular endothelial growth factor receptor 3 (Homo sapiens) (UniProt P35916)	residual activity	%	0
O=C1NC(=O)c2c1c1c3ccccc3n3c1c1c2c2ccccc2n1C1CCC3O1	Vascular endothelial growth factor receptor 3 (Homo sapiens) (UniProt P35916)	residual activity	%	2
COc1cc(OC)c(/C=C2\C(=O)Nc3ccccc32)c(OC)c1	Vascular endothelial growth factor receptor 3 (Homo sapiens) (UniProt P35916)	residual activity	%	74
